Biological target: Replicative DNA helicase DnaB (Mycobacterium tuberculosis, UniProt P9WMR3)
Sequence (P9WMR3 whole entry): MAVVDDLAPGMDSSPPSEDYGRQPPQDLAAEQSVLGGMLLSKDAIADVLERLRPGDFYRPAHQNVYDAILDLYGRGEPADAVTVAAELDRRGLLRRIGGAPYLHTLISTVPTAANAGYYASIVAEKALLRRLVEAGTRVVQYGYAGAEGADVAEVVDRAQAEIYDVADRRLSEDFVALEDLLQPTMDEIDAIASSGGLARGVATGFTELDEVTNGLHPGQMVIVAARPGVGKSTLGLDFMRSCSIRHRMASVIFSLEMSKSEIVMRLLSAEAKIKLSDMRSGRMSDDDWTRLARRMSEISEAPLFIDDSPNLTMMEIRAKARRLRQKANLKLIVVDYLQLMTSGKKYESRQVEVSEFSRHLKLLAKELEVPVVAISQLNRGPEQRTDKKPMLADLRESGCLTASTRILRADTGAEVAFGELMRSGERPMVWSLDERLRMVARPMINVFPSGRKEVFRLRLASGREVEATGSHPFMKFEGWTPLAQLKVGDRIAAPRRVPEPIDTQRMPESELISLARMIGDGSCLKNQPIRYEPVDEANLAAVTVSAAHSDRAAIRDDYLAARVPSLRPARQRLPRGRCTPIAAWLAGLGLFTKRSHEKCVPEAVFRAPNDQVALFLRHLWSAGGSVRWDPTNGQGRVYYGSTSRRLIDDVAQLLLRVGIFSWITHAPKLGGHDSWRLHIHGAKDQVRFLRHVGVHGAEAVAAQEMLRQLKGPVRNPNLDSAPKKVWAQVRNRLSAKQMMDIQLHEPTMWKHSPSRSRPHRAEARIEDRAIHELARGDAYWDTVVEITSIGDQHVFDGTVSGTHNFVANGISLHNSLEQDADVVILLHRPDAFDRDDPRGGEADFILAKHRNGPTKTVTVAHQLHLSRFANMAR
Assay: DnaB intein splicing inhibitors, dose response, biochemical, cell-free fluorescence (AID 449749)
Type: functional
Calls of active or inactive are those of the source.
Outcomes: YES (active), NO (inactive)

>>> df
                                    compound  class_assignment
 0                      Nc1ccc(N(CCO)CCO)cc1               YES
 1            Cc1cc(O)ccc1Nc1nc(-c2cccs2)cs1               YES
 2  Cc1ccccc1N1C(=O)c2ccccc2C1Nc1cccnc1 (configuration not stated)                NO
 3  N#Cc1cc([N+](=O)[O-])c(-n2nnc3ccccc32)c([N+](=O)[O-])c1               YES
 4  COc1ccc(OC)c(C2C(C#N)=C(N)Oc3c2c(C)nn3-c2cccc(Cl)c2)c1 (configuration not stated)                NO
 5           O=C(Oc1ccc(-n2cnnn2)cc1)c1ccco1               YES
 6  C=C(C)CN=C(S)N=Nc1c(O)[nH]c2ccc([N+](=O)[O-])cc12               YES
 7  [O-][n+]1c2c(nc3c1-c1ccccc1C3O)CCCC2 (configuration not stated)               YES
 8  O=C(NCc1ccc2c(c1)OCO2)c1nc(S(=O)(=O)Cc2ccccc2F)ncc1Cl               YES
 9            CC1(C)Cc2ccccc2C2=NNC(=O)C2=N1               YES
10    CC1=NN(c2ccccc2)C(=O)/C1=C/c1cccc(C)c1               YES
11      Cn1c2ccccc2c2cc(C(=O)NNC(=O)CCl)sc21                NO

====

Target: Beta Lactamase (Pseudomonas aeruginosa, UniProt Q932Y6)
Sequence (Q932Y6 whole entry): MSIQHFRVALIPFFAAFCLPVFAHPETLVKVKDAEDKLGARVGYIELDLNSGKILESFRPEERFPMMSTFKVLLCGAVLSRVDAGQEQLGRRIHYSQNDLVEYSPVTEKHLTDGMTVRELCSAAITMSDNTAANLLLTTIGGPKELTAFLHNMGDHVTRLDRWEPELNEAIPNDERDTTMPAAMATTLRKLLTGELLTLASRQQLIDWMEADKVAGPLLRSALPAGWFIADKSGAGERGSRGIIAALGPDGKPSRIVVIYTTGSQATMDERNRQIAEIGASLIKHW
Assay: beta-lactamase reporter inhibitor potency, dose response, artefact control for NOD2-RIPK2 interaction inhibitor project, BLA reporter cells, FRET fluorescence (AID 651552)
Format: functional, cell-based
Activity calls are given as the source filed them.
PROPERTY MEASURED: IC50

In [3]: df
Out[3]:
                                   compound                             target_entity  property_measured      endpoint_value
0  Cc1cccc(CS(=O)(=O)c2ncc(Cl)c(C(=O)NCc3ccccc3)n2)c1  Beta Lactamase (Pseudomonas aeruginosa, UniProt Q932Y6)               IC50  12.3 µM (inactive)
1  O=S(=O)(Nc1ccc(C(O)(C(F)(F)F)C(F)(F)F)cc1)c1ccc(Cl)c2nonc12  Beta Lactamase (Pseudomonas aeruginosa, UniProt Q932Y6)               IC50  41.6 µM (inactive)
2  C=CCn1c(Sc2ncc([N+](=O)[O-])s2)n[nH]c1=O  Beta Lactamase (Pseudomonas aeruginosa, UniProt Q932Y6)               IC50    42 µM (inactive)
3  CC(OC(=O)c1ccc(S(C)(=O)=O)c([N+](=O)[O-])c1)C(=O)NC1C2CC3CC(C2)CC1C3 (centres undefined)  Beta Lactamase (Pseudomonas aeruginosa, UniProt Q932Y6)               IC50  49.8 µM (inactive)

====

Each entry below lists one item and its recorded IC50 value.
Assay: human group III sPLA2 inhibitors, dose response, biochemical, QFRET, IC50 (AID 743457);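 note: green fluorescence rise as the enzyme cleaves BODIPY PC-A2 in liposomes; potency for inhibition of the enzyme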
Activity calls are given as the source filed them.
PROPERTY MEASURED: IC50

                         chemical_structure       endpoint_value
0  Cc1cc(Br)cc(/C=N/NC(=O)c2ccc3c(c2)OCO3)c1O  > 122 µM (inactive)
1  CN(C)c1ccc(/C=C/C=C/c2sc3ccccc3[n+]2C)cc1.[O-][Cl+3]([O-])([O-])[O-]   41.6 µM (inactive)
2      Cc1ccc(NC(S)=NNC(=O)c2nn(C)cc2Cl)cc1  > 122 µM (inactive)
3        S=C(Nc1ccc(Cl)cc1)c1nc2ccccc2[nH]1  > 122 µM (inactive)

====

Target: Corticotropin-releasing factor receptor 2/Corticotropin-releasing factor-binding protein (Homo sapiens, UniProt P24387+Q13324)
Sequence (Q13324 whole entry): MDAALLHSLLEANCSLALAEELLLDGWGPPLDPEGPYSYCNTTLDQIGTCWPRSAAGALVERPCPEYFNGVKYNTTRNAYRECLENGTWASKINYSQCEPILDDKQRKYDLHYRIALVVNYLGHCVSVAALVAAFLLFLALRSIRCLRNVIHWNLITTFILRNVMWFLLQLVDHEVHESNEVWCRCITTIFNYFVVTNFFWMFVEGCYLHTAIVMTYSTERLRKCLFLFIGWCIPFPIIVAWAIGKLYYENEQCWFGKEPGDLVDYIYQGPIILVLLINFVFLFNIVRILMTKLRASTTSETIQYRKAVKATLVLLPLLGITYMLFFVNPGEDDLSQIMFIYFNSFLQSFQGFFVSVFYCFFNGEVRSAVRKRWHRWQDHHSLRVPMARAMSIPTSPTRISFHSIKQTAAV
Sequence (P24387 whole entry): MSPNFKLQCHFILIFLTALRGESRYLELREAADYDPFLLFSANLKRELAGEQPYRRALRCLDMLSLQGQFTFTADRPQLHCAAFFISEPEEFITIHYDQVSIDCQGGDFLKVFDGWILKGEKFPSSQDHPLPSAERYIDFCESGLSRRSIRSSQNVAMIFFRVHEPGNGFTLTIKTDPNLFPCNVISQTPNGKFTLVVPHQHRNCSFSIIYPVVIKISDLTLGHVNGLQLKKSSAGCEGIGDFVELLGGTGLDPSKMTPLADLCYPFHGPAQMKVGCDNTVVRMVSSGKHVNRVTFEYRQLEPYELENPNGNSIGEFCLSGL
Test: activators of CRF receptor 2 with binding protein – uHTS hits, confirmation (AID 602473)
Format: functional
Details: read-out: EC50_Mean
Active and inactive are the calls of the source.
Outcomes: active, inactive

                                   molecule  class_assignment
0  CC(C)(C)c1ccc(C(=O)N2CCC(=O)N(C(CO)Cc3ccccc3)CC2)cc1 (centres undefined)          inactive
1  COc1ccc(C(=O)Nc2cc(C(C)=O)c(/C=C/N(C)C)oc2=O)cc1            active
2         Nc1ccc(S(=O)(=O)Nc2ccc(Cl)nn2)cc1          inactive
3  O=C(Cn1ncc2c3ccccc3nc-2c1O)NCC1CCN(Cc2ccccc2F)CC1          inactive
4   Cc1ccc(-c2ccc(=O)n(Cc3cc(C)ccc3C)n2)cc1          inactive
5  O=C1C2C3C=CC(C3)C2C(=O)N1c1cccc(N2C(=O)C3C4C=CC(C4)C3C2=O)n1 (centres undefined)          inactive
6  COc1cc(OC)cc(C(=O)N[C@H](C(=O)OCC(=O)NC(C)c2ccccc2)C(C)C)c1 (some centres undefined)            active
7        CCCC(=O)Nc1nnc(Sc2ccc(N(C)C)cc2)s1          inactive
8  Cn1c2ccccc2c(=O)c2c(=O)n(C3CCCCCC3)c(C3CCCCC3)nc21            active

====

Molecular target: Fatty acid synthase (Homo sapiens, UniProt P49327)
Sequence (P49327 whole entry, the tested form may be a part): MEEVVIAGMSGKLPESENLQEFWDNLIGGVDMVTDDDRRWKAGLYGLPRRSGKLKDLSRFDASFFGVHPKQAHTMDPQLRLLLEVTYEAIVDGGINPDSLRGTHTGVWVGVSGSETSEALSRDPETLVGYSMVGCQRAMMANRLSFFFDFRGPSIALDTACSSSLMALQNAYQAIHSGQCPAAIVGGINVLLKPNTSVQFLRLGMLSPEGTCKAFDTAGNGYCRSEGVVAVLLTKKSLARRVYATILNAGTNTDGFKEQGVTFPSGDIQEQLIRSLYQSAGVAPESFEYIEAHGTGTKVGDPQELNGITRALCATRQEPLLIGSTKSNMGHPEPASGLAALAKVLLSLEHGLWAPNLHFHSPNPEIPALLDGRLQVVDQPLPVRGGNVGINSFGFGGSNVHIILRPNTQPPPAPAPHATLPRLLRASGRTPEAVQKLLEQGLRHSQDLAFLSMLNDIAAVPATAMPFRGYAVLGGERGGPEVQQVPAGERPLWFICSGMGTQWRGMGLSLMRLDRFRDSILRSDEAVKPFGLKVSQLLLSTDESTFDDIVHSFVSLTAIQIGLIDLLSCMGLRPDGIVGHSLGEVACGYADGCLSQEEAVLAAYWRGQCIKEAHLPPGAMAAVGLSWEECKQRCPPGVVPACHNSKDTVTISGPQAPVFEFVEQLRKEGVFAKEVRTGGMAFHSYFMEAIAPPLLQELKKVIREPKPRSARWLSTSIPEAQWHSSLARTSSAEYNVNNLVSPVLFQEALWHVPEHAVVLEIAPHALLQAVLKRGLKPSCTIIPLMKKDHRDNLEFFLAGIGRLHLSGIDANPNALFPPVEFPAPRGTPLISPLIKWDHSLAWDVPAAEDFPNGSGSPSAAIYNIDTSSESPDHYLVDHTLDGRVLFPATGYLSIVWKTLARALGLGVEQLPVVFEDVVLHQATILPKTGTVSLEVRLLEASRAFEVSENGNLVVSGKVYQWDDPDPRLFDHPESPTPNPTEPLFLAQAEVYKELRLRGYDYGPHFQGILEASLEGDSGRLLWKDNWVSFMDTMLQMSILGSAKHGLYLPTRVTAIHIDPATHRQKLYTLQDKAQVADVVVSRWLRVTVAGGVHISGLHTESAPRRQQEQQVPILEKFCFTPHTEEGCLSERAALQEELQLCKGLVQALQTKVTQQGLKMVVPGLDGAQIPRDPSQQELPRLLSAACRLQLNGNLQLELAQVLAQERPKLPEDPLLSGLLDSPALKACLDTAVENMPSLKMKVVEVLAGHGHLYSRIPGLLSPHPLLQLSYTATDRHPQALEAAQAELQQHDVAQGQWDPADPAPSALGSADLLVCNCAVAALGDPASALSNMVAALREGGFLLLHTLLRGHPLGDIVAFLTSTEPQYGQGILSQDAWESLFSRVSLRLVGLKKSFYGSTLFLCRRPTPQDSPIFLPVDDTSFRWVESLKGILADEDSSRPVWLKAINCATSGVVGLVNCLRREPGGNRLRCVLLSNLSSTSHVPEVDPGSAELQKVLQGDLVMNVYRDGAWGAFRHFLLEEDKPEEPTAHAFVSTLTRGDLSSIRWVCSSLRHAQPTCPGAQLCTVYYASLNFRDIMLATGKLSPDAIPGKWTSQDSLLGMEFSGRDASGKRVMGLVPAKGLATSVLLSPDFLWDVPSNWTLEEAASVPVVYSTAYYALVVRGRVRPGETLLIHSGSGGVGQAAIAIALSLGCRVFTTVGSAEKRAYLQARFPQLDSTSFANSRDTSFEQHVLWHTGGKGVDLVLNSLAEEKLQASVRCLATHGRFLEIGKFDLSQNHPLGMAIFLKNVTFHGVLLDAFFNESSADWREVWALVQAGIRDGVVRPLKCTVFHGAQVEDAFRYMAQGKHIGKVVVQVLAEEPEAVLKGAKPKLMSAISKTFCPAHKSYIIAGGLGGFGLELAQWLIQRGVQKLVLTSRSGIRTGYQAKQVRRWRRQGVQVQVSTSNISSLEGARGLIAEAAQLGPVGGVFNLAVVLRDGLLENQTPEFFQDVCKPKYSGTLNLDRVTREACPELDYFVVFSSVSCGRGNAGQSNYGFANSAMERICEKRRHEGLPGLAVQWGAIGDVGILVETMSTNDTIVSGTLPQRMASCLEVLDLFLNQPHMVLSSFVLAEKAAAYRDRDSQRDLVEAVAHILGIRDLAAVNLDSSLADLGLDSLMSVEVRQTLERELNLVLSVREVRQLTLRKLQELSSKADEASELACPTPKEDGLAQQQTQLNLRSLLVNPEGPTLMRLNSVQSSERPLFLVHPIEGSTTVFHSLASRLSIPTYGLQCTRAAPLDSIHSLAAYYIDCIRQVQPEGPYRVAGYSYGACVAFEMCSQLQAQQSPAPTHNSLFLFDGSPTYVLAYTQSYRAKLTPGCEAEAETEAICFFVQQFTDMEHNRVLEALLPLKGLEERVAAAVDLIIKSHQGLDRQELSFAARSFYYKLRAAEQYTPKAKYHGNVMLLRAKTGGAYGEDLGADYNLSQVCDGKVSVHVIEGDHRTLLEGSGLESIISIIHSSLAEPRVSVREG
Experiment: FAS thioesterase domain inhibitors, dose response, biochemical, endpoint fluorescence intensity, uHTS hits (AID 624327);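 note: fluorescence from hydrolysis of an O-methyl fluorescein acyl ester substrate by the enzyme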
Type: functional
Active and inactive are the calls of the source.
PROPERTY MEASURED: IC50

In [3]: df
Out[3]:
                                   compound                             target_entity  property_measured    endpoint_value
0  Cc1ccc2[nH]c(SCC(=O)Nc3ccc(F)c([N+](=O)[O-])c3)nc2c1  Fatty acid synthase (Homo sapiens, UniProt P49327)               IC50  6.64 µM (active)
1  Oc1c(Cl)cc(Cl)c(Cl)c1Cc1c(O)c(Cl)cc(Cl)c1Cl [HEXACHLOROPHENE]  Fatty acid synthase (Homo sapiens, UniProt P49327)               IC50  7.79 µM (active)
2  COc1cc(OC)c(N2CC(C(=O)NCCC3=CCCCC3)CC2=O)cc1Cl (stereo not given)  Fatty acid synthase (Homo sapiens, UniProt P49327)               IC50  9.83 µM (active)
3  N#CC(CCc1ccccc1[N+](=O)[O-])(CCc1ccccc1[N+](=O)[O-])C(N)=O  Fatty acid synthase (Homo sapiens, UniProt P49327)               IC50  11.4 µM (active)
4  CC1(C(=O)Nc2ccc(Cl)c(Cl)c2)CCN1C(=O)CC1CCCC1 (stereo not given)  Fatty acid synthase (Homo sapiens, UniProt P49327)               IC50   8.5 µM (active)
